In this section, each of the variants is paired with its reported normalized RNA/DNA level with ligand (log10).
B1: library; a variant is named by its letters at N, in order (parent)
chain: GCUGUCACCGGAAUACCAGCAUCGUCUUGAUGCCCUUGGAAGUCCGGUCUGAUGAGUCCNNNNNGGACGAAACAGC

variants of: B1; experiment: normalized RNA/DNA level with ligand (relative to sTRSVctl = 100) (log10 (% of sTRSVctl)); higher = less ribozyme self-cleavage, higher mRNA level; settings: ligand concentration (+) RNA-Seq: 5 mM, HEK293T, reporter: mCherry (pCS4076), ligand present: yes
// no unit string in output, number only

# count of solved cases: 5
{"columns": ["Mutation name", "Endpoint result"],
 "data": [
  ["CGCGA", 1.97],
  ["CCCGA", 1.96],
  ["CAUUA", 1.85],
  ["GACUG", 1.98],
  ["ACAUG", 1.91]
]}

Turning to the following variant.
What value of normalized RNA/DNA level with ligand (log10) has been recorded for this entry: CUGCU 1.92

Every entry's value here was drawn from the supplement of paper PMC6757056.
